Entries and their measured SPOT peptide array binding signal intensity follow.
Biological target: AgAbp1
Assay: SPOT peptide array binding signal intensity (averaged, normalized) (arbitrary units (background-subtracted, floor 0; scale differs between SH3 domains)); higher = stronger binding of the SH3 domain to the peptide
Measured attribute: SPOT peptide array binding signal intensity

NRARYLPQNPDIIAG    ≤ 0
DLPLPDLPPEPPTEL    ≤ 0
STPQTMRQAPKRPDA    ≤ 0
